experiment: Solubility in 62.5% (v/v) aqueous organic solvents, quantification in HPLC; assay type: physicochemical; conditions: aqueous organic solvent, 20 °C, aqueous with cosolvent or surfactant or cyclodextrin, thermodynamic from solid, 62.5% (v/v) acetonitrile in water
Structures can show the parent of a compound that is named as a salt.
measurement type: solubility at 30 min (mg/mL)
Please state the figure in mg/mL; there is no need to write the unit.

Q. What value of solubility at 30 min has been recorded for this entry: C[C@@H](O)[C@H]1C(=O)N2C(C(=O)O)=C(S[C@@H]3CN[C@H]([C@H](O)[C@@H]4CCNC4)C3)[C@H](C)[C@H]12 [monohydrate, monohydrochloride monohydrate]
A. 15.8
